species on record: Homo sapiens; experiment: Binding affinity to human CCL21 at 100 uM by glycan microarray analysis
Attribute Measured: Activity (%)

Take a look at these entries with their results.
>>> quantitative_result("NCCOCCO[C@@H]1O[C@@H](C(=O)O)[C@@H](OS(=O)(=O)O)[C@H](O)[C@H]1O")
62
>>> quantitative_result("NCCOCCO[C@@H]1O[C@@H](C(=O)O)[C@@H](O[C@@H]2O[C@@H](C(=O)O)[C@@H](O[C@@H]3O[C@@H](C(=O)O)[C@@H](O)[C@H](O)[C@H]3O)[C@H](O)[C@H]2O)[C@H](O)[C@H]1O")
46
>>> quantitative_result("NCCOCCO[C@@H]1O[C@@H](C(=O)O)[C@@H](O)[C@H](O)[C@H]1O")
52
>>> quantitative_result("NCCOCCO[C@@H]1O[C@@H](C(=O)O)[C@@H](O[C@@H]2O[C@@H](C(=O)O)[C@@H](O)[C@H](O)[C@H]2O)[C@H](O)[C@H]1O")
63

1: NCCOCCO[C@@H]1O[C@@H](C(=O)O)[C@@H](O[C@@H]2O[C@@H](C(=O)O)[C@@H](O[C@@H]3O[C@@H](C(=O)O)[C@@H](O[C@@H]4O[C@@H](C(=O)O)[C@@H](O)[C@H](O)[C@H]4O)[C@H](O)[C@H]3O)[C@H](O)[C@H]2O)[C@H](O)[C@H]1O
2: NCCOCCO[C@@H]1O[C@@H](C(=O)O)[C@@H](O[C@@H]2O[C@@H](C(=O)O)[C@@H](OS(=O)(=O)O)[C@H](O)[C@H]2OS(=O)(=O)O)[C@H](O)[C@H]1OS(=O)(=O)O
Smaller Activity value, 1 vs 2 ? // caller expects the label of the chosen entry
1
